Value source: patent US20240301052A1

MEASURED TARGET: T1, Rhesus SLC34A2 (Rhesus, UniProt F7HDA3 1-690)
T1 construct: whole, on cells
T1 sequence: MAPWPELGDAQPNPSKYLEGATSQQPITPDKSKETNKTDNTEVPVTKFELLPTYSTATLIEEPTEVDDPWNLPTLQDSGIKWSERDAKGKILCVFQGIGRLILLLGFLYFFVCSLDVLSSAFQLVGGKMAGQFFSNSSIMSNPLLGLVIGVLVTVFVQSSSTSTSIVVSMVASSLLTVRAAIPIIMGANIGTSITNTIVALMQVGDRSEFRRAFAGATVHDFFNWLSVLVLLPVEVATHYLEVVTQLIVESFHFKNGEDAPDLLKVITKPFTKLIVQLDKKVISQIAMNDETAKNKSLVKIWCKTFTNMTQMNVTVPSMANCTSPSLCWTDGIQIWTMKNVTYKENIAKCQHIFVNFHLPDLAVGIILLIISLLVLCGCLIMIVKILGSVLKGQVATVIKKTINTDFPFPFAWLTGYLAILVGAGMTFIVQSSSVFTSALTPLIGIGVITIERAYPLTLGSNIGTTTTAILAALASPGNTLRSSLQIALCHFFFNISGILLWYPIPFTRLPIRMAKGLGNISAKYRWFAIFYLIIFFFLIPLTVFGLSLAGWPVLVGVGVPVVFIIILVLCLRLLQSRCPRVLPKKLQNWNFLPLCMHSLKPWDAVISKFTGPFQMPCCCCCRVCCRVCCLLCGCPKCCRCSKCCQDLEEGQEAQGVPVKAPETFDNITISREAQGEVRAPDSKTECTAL
PROTOCOL NOTES: FACS, HEK293/Rhesus SLC34A2 cells
Experimental: Briefly, the Rhesus SLC34A2 expressing HEK293 engineering cells (HEK293/Rhesus_SLC34A2) were incubated with chimeric Abs (from 200 nM, 4 folds dilution, 8 points). After incubation at 4° C. for 60 minutes, the cells were washed with FACS buffer twice, then stained with fluorescent conjugated secondary antibody at 4° C. for 30 minutes. After that the cells were washed twice and analyzed by flow cytometry.
PARAMETER: EC50 (nM)

BINDER	PARAMETER	UNIT OF MEASUREMENT	RECORDED RESULT
xi94B10A8 hIgG1 (antibody, V domains shown, chimeric, hIgG1) VH: QVQLQQTGAELVKPGASVKMSCKASGYTFTGYIIHWIKQRPGQGLEWIGAIYPGNGDTSYNQKIKGRATLTADKSSTTAYMQLSSLTSEDSAVYYCARGDYGNPAWFAYWGQGTLVTVSA VL: DVVLTQSPATLSVTPGDRVSLSCRASQSISNYLYWYQQKAHESPRLLIKFASQSISGIPSRFRGSGSGTDFTLSINSVETEDFGMYFCQQSNKWPLTFGAGTKLELK	EC50	nM	2.24
xi30H9B8F9 hIgG1 (antibody, V domains shown, chimeric, hIgG1) VH: QVQLQQPGAELVKPGASVKMSCKTSGYTFTTNNMHWVKQTPGQGLEWIGAIYPGNGATAYNQKFKGKATLTADKSSSTAYMQLSSLTSEASAVYYCARGMYGHGAMDYWGQGTSVIVSS VL: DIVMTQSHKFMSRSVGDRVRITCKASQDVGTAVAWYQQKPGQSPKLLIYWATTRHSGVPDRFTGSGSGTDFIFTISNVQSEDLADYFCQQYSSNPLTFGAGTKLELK	EC50	nM	1.26
xi55E5B6D12 hIgG1 (antibody, V domains shown, chimeric, hIgG1) VH: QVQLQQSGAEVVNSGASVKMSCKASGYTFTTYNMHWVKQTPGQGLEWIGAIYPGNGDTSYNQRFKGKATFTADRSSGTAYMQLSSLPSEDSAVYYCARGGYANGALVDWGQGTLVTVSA VL: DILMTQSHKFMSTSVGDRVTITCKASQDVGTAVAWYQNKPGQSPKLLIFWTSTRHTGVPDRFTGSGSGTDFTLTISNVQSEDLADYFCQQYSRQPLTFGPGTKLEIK	EC50	nM	2.46
xi69B11D8 hIgG1 (antibody, V domains shown, chimeric, hIgG1) VH: EVQLQQSGPELVKPGAAVKISCKTSGYTFTDYTMHWVRQSHGKSLEWIGGIHPNNGGTGYNQKLRGKATLTVDKSSSTAYMELRSLTSDDSAVYYCARGRESDGWFTYWGQGTLVTFSA VL: DVHMTQTTSSLSASLGDRVTITCSASQGIGNSLNWYQQQPDGTVKLLIYYTSRLHSGVPSRFSGSGSGTDYSLTISNLEPEDLATYYCQQYSRFPPTFGGGTKLEIK	EC50	nM	1.68
